system: MS2 coat protein; test: apparent Kd, MS2 coat protein; higher = weaker binding; RNA-MaP array; theophylline 2 mM where present; settings: designed as: OFF switch for theophylline; no ligand
apparent Kd vs 20 nM: at or above is rule met, below is rule not met.

Example results:
sequence_entry=GAGCUGAUGUAGAAAUUUUAUUUAUGAGAUACCAGUACAGAAAUGUACCCUUGGCAGCUCAAUUUUACAUGAGGAUCACCCAUGU qualitative_label="rule not met"
sequence_entry=AAAACACAUGAGGAUCACCCAUGUCGUGAUACCAGUCAACAUGAGGACCCUUGGCAGCAUAAAAUGGGUAACAUGAGGAUAACCC qualitative_label="rule met"
sequence_entry=UUUUAAGGGAUCGGUGCUGGUAGCAGAGAUACCAGAGUAAUGAUACUCCCUUGGCAGCUCAGUACAUGAGGAUCACCCAUGUUUU qualitative_label="rule not met"

Reported apparent Kd reaches at least 20 nM for AUCUGUAUGUUUUCGUGUUUUAUUACAGAUACCAGACUAUACGUUGUCCCUUGGCAGCUGGAUGACAUGAGGAUCACCCAUGUUG ? rule met

Reported apparent Kd reaches at least 20 nM for GAUGAAGUAACUGAUACCAGUGUACUGACAUGAGGAUCACCCAUGUUGGGUUUUGUUGUACACCCUUGGCAGCAGAAUCUUUAUC ? rule met

Reported apparent Kd reaches at least 20 nM for UGGGCAUACAUGAGGAUCACCCAUGUAGAUACCAGCACUAGCCUGUGCCCUUGGCAGCUAACCGGGUCGAGAACUUAGUGCUCCU ? rule not met

Reported apparent Kd reaches at least 20 nM for AGACAUGAGGAUCACCCAUGUAGCACGGAUACCAGAUCCAGAUGUAUCCCUUGGCAGCUGUGGUACAGCGUUGCAACGCUCCUAG ? rule met

Reported apparent Kd reaches at least 20 nM for AUGUCAUUGGUGUAGCUGUGAAGUGGCGAUACCAGCGUGGAAACACGCCCUUGGCAGCGCCAAAACAUGAGGAUCACCCAUGUUA ? rule met

###

Please go through the items and note down their apparent Kd.
test system: MS2 coat protein; assay: apparent Kd, MS2 coat protein; higher = weaker binding; RNA-MaP array; FMN 200 µM where present; settings: ligand present: flavin mononucleotide; designed as: OFF switch for flavin mononucleotide
Numbers only, in nM.

sequence_entry=AAUGUCUGAGGAUAUCGUUUUUUGUACAUGAGGAUCACCCAUGUCCAAUUUUGUAUAUUACGAGAAGGCAGUGGAA study_system="MS2 coat protein" observed=22.4
sequence_entry=AAGGAUAGAGGAUAUACAUAGAUACAGAUUCAUGUAGAACUACAUGAGGAUCACCCAUGUAGAAGGCUAUCCUA study_system="MS2 coat protein" observed=239
sequence_entry=CAUAGUAAUUAGGAUAUCUGCCGGCUGAACCGAGGAGAAGGGAUUACAUGAGGAUCACCCAUGUGGUCCUAAGA study_system="MS2 coat protein" observed=18.7
sequence_entry=UUAGAUUAUGAAGGAUAUGGAUCUUAUUAUUAACCAGAAGGUCAACUCAACAUGAGGAUCACCCAUGUAUAAAGGGUAUUAGUU study_system="MS2 coat protein" observed=132
sequence_entry=AUGCUAGUGUGAGGAUAUUAACAUGAGGAUCACCCAUGUUGGAAGUACACGACAUGAGGUACAUUUAAGAAGGUACAUUAGCAU study_system="MS2 coat protein" observed=161

Take each entry in turn and give its apparent Kd.
1. GCCUCAUAGUAGAAGGGACUUAGGCAGUUAAGCAUCAUCUCCAUUUCACAUGAGGAUCACCCAUGUCAGGAUAUACUAAGAGGC
2. GAUACACAUGAGGAUCACCCAUGUGAGGAUAUGCGUACGUUGUCCGUAGGCGACGUGCGCAGAAGGCGCAAGGU
3. GGCUAGUCAGGAUAUACGAACAUGUCAAAAGACGUGAAGGGACAUGAGGAUCACCCAUGUAGAAGGGACUAGCU
4. UCGUAUAAGGGCAUUACACAUGAGGAUCACCCAUGUACGUUAGAGGAUAUGCAUUCCAGUUGAACGUAGAAGGCUAGAGAAGGG
5. GGACCUCCUGAGGAUAUUGCAUCACCCGACUGAUAAGAAGGCAGAACAUGAGGAUCACCCAUGUGGGUACUCGG

24.5
95.3
165
129
36.1

Take each entry in turn and give its apparent Kd.
1. ACCAUUUACUAAUCCUCUAUACAUGAGGAUCACCCAUGUUAUGAGGAUAUCAUCGUUCGCCGCGUUGAGAAGGCAUAGCAUUCG
2. UGAUAACAUGUAGGAUAUCCAGCAUUGACCAUCGGAGAAGGACAUGAGGAUCACCCAUGUACCGAUACAAUGGGAUAUGGGAAU
3. ACUAGAUGAGGAUAUGCACAUUUUAGUGUUCCUCUAGAUUAACAUGAGGAUCACCCAUGUAGAAGGCGUCAAUU
4. GCCUCACAUGAGGAUCACCCAUGUCAGGAUAUAGGAGACGGUAGCUUUGCUGCCAUCGCUAGAAGGGACUGGCU

1: 25.9; 2: 27.2; 3: 64.8; 4: 111

Take each entry in turn and give its apparent Kd.
1. GCUAAGAGUGUGAGGAUAUGCUGGUCCUUGGAUCAGCAGAAGGCACAUGAGGAUCACCCAUGUGAAAACUUAGC
2. AUAAUUUUAUAAUUCUUUUUAUUCAGAAGGCAUAACAUGAGGAUCACCCAUGUAAAUUAAUGUUAUGAGGAUAUGAUUUGGUUA
3. AGAGAAUAGGUAGGAUAUCUUAAUAGAAAGAAUAGAGAAGGACCACAUGAGGAUCACCCAUGUGAAGUCUUGAGACUACAUGGU
4. UAUAAGCUAGGAUAUACUAACGAAACUAAUGCAUAUAUAUAACAUGAGGAUCACCCAUGUAGAAGGAGCAGAAU

1: 89.6; 2: 118; 3: 22.9; 4: 23

Take each entry in turn and give its apparent Kd.
1. GUACUGUAGUGAGGAUAUACGAGUGCGAUAGCACGGCGAUCCAAUUAUACAUGAGGAUCACCCAUGUAGAAGGCACUUCAGUAC
2. GUAAAUCAUGUAGGAUAUGCAUGGCGAAGCUACGCAGAAGGACAUGAGGAUCACCCAUGUCUGUCCGUCUGCGUACAGACGGAC
3. UCGACGAAAGUCGAACGAUGUAGCAGAAGGACAUGAGGAUCACCCAUGUCAGCUGUAACAGCCAUGUAGGAUAUGCUACAUCGC
4. GUAAAGUGAGGAUAUGGUAAAGUAAGUAUGUAGUAAGUAAUCCAGAAGGCACAUGAGGAUCACCCAUGUAAAUG
5. ACUAGUUGGUAAGGAUAUCCUACACUAUUCUGACCCGUGCAAGCUACAUGAGGAUCACCCAUGUGGGAGAAGGUGCGUCAACGU
6. AUUGUAUGGGAAGGAUAUAGAAUAUUAUUUUAACAUGAGGAUCACCCAUGUAACCUUAUGUGUAGCUAGAAGGUCCGUUUAUUA
7. GCCGAUUAAGUGAGGAUAUACCUAUGGAUACAUAGGUAGAAGGCACAUGAGGAUCACCCAUGUUCCUUAACGGC
8. GAUCCACAUGAGGAUCACCCAUGUGAGGAUAUGAUACUAUGUACUUCGGUACAUAGUAUCAGAAGGCAUAUGAA

41
170
5.7
32.3
10.6
157
30
196

Take each entry in turn and give its apparent Kd.
1. UAAUAAAACGAUCGGCGAUCCAAACAUGAGGAUCACCCAUGUAGAAGGGACUCUACAAAGUAGAGUCAGGAUAUACGAGAUCGA
2. AAGCUGUGAGGAUAUACAUGAGGAUCACCCAUGUUAAGGAAGUCUUGGUUAAUUUGGAGUAGAAGGCGCUUAUU
3. UUGAUGUCAGGAUAUGCUUAAUAUAUUUUAUUAUAAUAUAUACAUGAGGAUCACCCAUGUAGAAGGGACAUUGU

1. 208
2. 25.5
3. 23.8

###

tested on: MS2 coat protein; test: apparent Kd, MS2 coat protein; higher = weaker binding; RNA-MaP array; FMN 200 µM where present; conditions: designed as: OFF switch for flavin mononucleotide; no ligand
Please go through the items and note down their apparent Kd.
Answers are plain numbers, in nM.

sequence_entry=CCGACUUACUAGGAUAUCAGAGUCGAAAGACUCUGAGAAGGAGUAACAUGAGGAUCACCCAUGUGUCCUAUCGG study_system="MS2 coat protein" attribute_measured="apparent Kd" observed=23.3
sequence_entry=ACCGAACAUGAGGAUCACCCAUGUGAGGAUAUAGACGUGAAUUAAACACGUAACAAAACUAGAAGGCACUGGGC study_system="MS2 coat protein" attribute_measured="apparent Kd" observed=30.8
sequence_entry=UUAUUAUAUGUAGGAUAUGCAUAUUAUUAUUAUGCAGAAGGACAUGAGGAUCACCCAUGUAUAUUAUUAUUAUAUAUUAUAUGU study_system="MS2 coat protein" attribute_measured="apparent Kd" observed=41.2

Please examine the following record next.
Just so you know, measured apparent Kd for GACUUGUCAGGAUAUCUUACAUUUGCAUCUUAGUUACCAUUGGAGAAGGGACAUGAGGAUCACCCAUGUUUGGU came out at 35.1
